System: ERK1/2 (Thr202/Tyr204) phosphorylation in KYSE520 cells
experiment summary: Cellular Phospho-p44/42 MAPK (Erk1/2) (Thr202/Tyr204) assay, In-Cell Western
Type: cell-based
measurement parameters: Homo sapiens, KYSE-520; KYSE520 cells, 1 hour incubation, pERK signal normalized to GAPDH; single assay or mean of multiple assays; read-out: Biological Example 2 IC50
Listed here: items and their measured IC50.

>  <molecule>
Nc1nccc(Sc2cnc(N3CCC4(CC3)Cc3ncc(Cl)cc3[C@H]4N)nn2)c1Cl

>  <IC50 / nM>
81

$$$$
>  <molecule>
CC(C)(C#N)CNc1nccc(Sc2cnc(N3CCC4(CC3)Cc3ccccc3[C@H]4N)nn2)c1Cl

>  <IC50 / nM>
17

$$$$
>  <molecule>
COc1cnc2c(c1)[C@H](N)C1(CCN(c3ncc(Sc4ccnc(N)c4Cl)nn3)CC1)C2 (single isomer, unassigned)

>  <IC50 / nM>
509

$$$$
>  <molecule>
N[C@@H]1c2ccccc2CC12CCN(c1ncc(Sc3c[nH]c4ncccc34)nn1)CC2

>  <IC50 / nM>
120

$$$$
>  <molecule>
Nc1nccc(Sc2cnc(N3CCC4(CC3)Oc3ccccc3[C@H]4N)nn2)c1Cl

>  <IC50 / nM>
12

$$$$
>  <molecule>
N[C@@H]1c2ccccc2CC12CCN(c1ncc(-c3ccccc3)nn1)CC2

>  <IC50 / nM>
697

$$$$
>  <molecule>
Cc1nc2c(s1)[C@H](N)C1(CCN(c3ncc(Sc4ccnc(N)c4Cl)nn3)CC1)C2

>  <IC50 / nM>
139

$$$$
>  <molecule>
Nc1nccc(Sc2cnc(N3[C@H]4CC[C@H]3CC(N)C4)nn2)c1Cl (some centres unmarked)

>  <IC50 / nM>
1290

$$$$
